Data credit: the antibiotic and cytotoxicity screens of Wong et al. (2023)

Test system: HSkMC (human skeletal muscle cells)
Assay: cytotoxicity call (relative viability < 0.9)
Settings: 10 µM
Out of some 39,000 compounds screened, about 1,500 (3.8%) were called active. The list comes from a sample in which actives are over-represented; it also holds close analogues and randomly drawn compounds.
Respond with a class label; see 1 = active, -1 = inactive

Recorded results for 8 compounds are shown here.
Problem: Tell me the recorded outcome of this test for "C[C@H]1CN([C@@H](C)CO)S(=O)(=O)c2ccc(C#Cc3ccccc3F)cc2O[C@@H]1CN(C)C(=O)c1ccc2c(c1)OCO2" .
Result: -1

Problem: For "Cc1ccc(S(=O)(=O)Nc2ccc3c(c2)C(=O)N([C@@H](C)CO)C[C@@H](C)[C@@H](CN(C)C(=O)Nc2ccc(C(F)(F)F)cc2)O3)cc1" , which call appears in the assay record?
Result: -1

Problem: Given "C[C@@H]1CN([C@@H](C)CO)S(=O)(=O)c2ccc(C#Cc3ccncc3)cc2O[C@H]1CN(C)C(=O)Nc1ccc2c(c1)OCO2" , state the outcome it received in this test.
Result: 1

Problem: Outcome? "C[C@@H]1CN([C@@H](C)CO)S(=O)(=O)c2ccc(C#CC3(O)CCCC3)cc2O[C@@H]1CN(C)C(=O)Nc1cccc(F)c1"
Result: -1

Problem: Which outcome was entered for the compound "C[C@H](CO)N1C[C@H](C)[C@@H](CN(C)C(=O)Nc2cc(F)ccc2F)Oc2cc(/C=C/c3ccccc3)ccc2S1(=O)=O" in this test?
Result: -1

Problem: Fill in: this test's call for "COc1ccc2c3c([nH]c2c1)[C@H](CO)N(Cc1ccc(cc1)Cl)C[C@]13CCN(CCc2ccccc2)CC1" is ___
Result: -1

Problem: State the result this test recorded for "C[C@@H]1CN([C@@H](C)CO)C(=O)Cc2cc(NC(=O)Nc3cccc4ccccc34)ccc2O[C@@H]1CN(C)S(=O)(=O)c1cccs1" .
Result: -1

Problem: Test call for this compound, please: "COc1ccc2c3c([nH]c2c1)[C@@H](CO)N(C[C@]13CN(CCc2ccccc2)C1)C(=O)CN1CCOCC1"
Result: -1

We now examine a further compound.
Problem: // return assay outcome for "C[C@H](CO)N1C[C@H](C)[C@@H](CN(C)Cc2ccc(C(=O)Nc3ccccc3N)cc2)Oc2ccc(NC(=O)CCN3CCOCC3)cc2CC1=O"
Result: -1
